- Tested system: HLA-A*02:01 (Homo sapiens, UniProt P04439, D140Y/D185E/D98H/E176V/E277Q/G131W/G231S/I119V/I121R/I166T/I218V/L300P/L318F/N151K/N90K/P208A/P217A/Q86G/Q94H/R138H/R169H/T345S)
- Protocol details: MHC binding assay (UV-ligand exchange, beta2m ELISA, peptide exchange yield)
- Assay context: binding of HLA-class I restricted peptides to HLA-A*02:01, ranged by peptide exchange yield (UV-ligand exchange, β2m ELISA)

Substance: 502 (RLLAQVPGL; listed as Homo sapiens) [compound 502]
Peptide exchange: ″+++″ (≥50% = +++)

Substance: 69 (FQLDPSSGVLVTV; listed as Homo sapiens) [compound 69]
Peptide exchange: ″+++″ (≥50% = +++)

Substance: 97 (SLINGSFLV; listed as Homo sapiens) [compound 97]
Peptide exchange: ″+++″ (≥50% = +++)

Substance: 92 (YLIPFTGIVGL; listed as Homo sapiens) [compound 92]
Peptide exchange: ″++″ (≥20% = ++)

Substance: 443 (GLWEIENNPTV; listed as Homo sapiens) [compound 443]
Peptide exchange: ″+++″ (≥50% = +++)

Substance: 286 (YLFPGIPEL; listed as Homo sapiens) [compound 286]
Peptide exchange: ″+++″ (≥50% = +++)

Substance: 598 (FLFPHSVLV; listed as Homo sapiens) [compound 598]
Peptide exchange: ″+++″ (≥50% = +++)

Substance: 114 (SLVGEPILQNV; listed as Homo sapiens) [compound 114]
Peptide exchange: ″++″ (≥20% = ++)

Substance: 526 (RLAEVGQYEQV; listed as Homo sapiens) [compound 526]
Peptide exchange: ″++″ (≥20% = ++)

Substance: 287 (FLNEFFLNV; listed as Homo sapiens) [compound 287]
Peptide exchange: ″+++″ (≥50% = +++)

Substance: 167 (KVLEVTEEFGV; listed as Homo sapiens) [compound 167]
Peptide exchange: ″+++″ (≥50% = +++)

###

- Tested system: HLA-A*02:01 (Homo sapiens, UniProt P04439, D140Y/D185E/D98H/E176V/E277Q/G131W/G231S/I119V/I121R/I166T/I218V/L300P/L318F/N151K/N90K/P208A/P217A/Q86G/Q94H/R138H/R169H/T345S)
- Protocol details: MHC binding assay (UV-ligand exchange, beta2m ELISA, peptide exchange yield)
- Assay context: binding of HLA-class I restricted peptides to HLA-A*02:01, ranged by peptide exchange yield (UV-ligand exchange, β2m ELISA)

Substance: 359 (YLLPESVDL; listed as Homo sapiens) [compound 359]
Peptide exchange: ″+++″ (≥50% = +++)
--
Substance: 181 (LLWAGTAFQV; listed as Homo sapiens) [compound 181]
Peptide exchange: ″+++″ (≥50% = +++)
--
Substance: 484 (SLIEKVTQL; listed as Homo sapiens) [compound 484]
Peptide exchange: ″+++″ (≥50% = +++)
--
Substance: 571 (LLLTTIPQI; listed as Homo sapiens) [compound 571]
Peptide exchange: ″+++″ (≥50% = +++)
--
Substance: 531 (YTLPIASSIRL; listed as Homo sapiens) [compound 531]
Peptide exchange: ″+++″ (≥50% = +++)
--
Substance: 172 (VLYSYTIITV; listed as Homo sapiens) [compound 172]
Peptide exchange: ″++″ (≥20% = ++)
--
Substance: 34 (ILVEADSLWVV; listed as Homo sapiens) [compound 34]
Peptide exchange: ″+++″ (≥50% = +++)
--
Substance: 378 (ALGYFVPYV; listed as Homo sapiens) [compound 378]
Peptide exchange: ″+++″ (≥50% = +++)
--
Substance: 162 (YQQAQVPSV; listed as Homo sapiens) [compound 162]
Peptide exchange: ″+++″ (≥50% = +++)
--
Substance: 279 (ALWGGTQPLL; listed as Homo sapiens) [compound 279]
Peptide exchange: ″++″ (≥20% = ++)
--
Substance: 596 (ALLDQTKTLAESAL; listed as Homo sapiens) [compound 596]
Peptide exchange: ″+++″ (≥50% = +++)
--
Substance: 278 (QLLDVVLTI; listed as Homo sapiens) [compound 278]
Peptide exchange: ″++″ (≥20% = ++)
--
Substance: 405 (ALYDVFLEV; listed as Homo sapiens) [compound 405]
Peptide exchange: ″++″ (≥20% = ++)
--
Substance: 481 (GLIEDYEALL; listed as Homo sapiens) [compound 481]
Peptide exchange: ″+++″ (≥50% = +++)
